target: human Gal-3 (hGal-3) (Homo sapiens (Human)); test: Competitive binding assay: biotinylated hGal-3 binding to microplate-adsorbed asialofetuin (ASF); conditions: Activity on hGal-3; mean values of several measurements; mixture of diastereomers measured where not separated
pIC50: −log10 of the molar value.
Readout Type: pIC50

These solved cases illustrate the format of a correct answer.
{"columns": ["Given Smiles", "pIC50"],
 "data": [
  ["CO[C@@H]1[C@@H](n2cc(-c3cc(F)c(F)c(F)c3)nn2)[C@@H](O)[C@@H](CO)O[C@H]1C(=O)N(c1cc(Br)cc(C#N)c1)[C@@H]1CNC[C@H]1O", 6.89],
  ["CO[C@@H]1[C@@H](n2cc(-c3ccc(C)c(F)c3F)nn2)[C@@H](O)[C@@H](CO)O[C@H]1C(=O)N(c1cc(Br)cc(C#N)c1)[C@@H]1COC[C@H]1O", 7.74],
  ["CO[C@@H]1[C@@H](n2cc(-c3ccc(C)c(F)c3F)nn2)[C@@H](O)[C@@H](CO)O[C@H]1C(=O)N(c1cc(C)cc(Br)c1)[C@H]1CN(C=O)C[C@@H]1O", 7.72]
]}

a: CO[C@@H]1[C@@H](n2cc(-c3ccc(C)c(F)c3F)nn2)[C@@H](O)[C@@H](CO)O[C@H]1C(=O)N(c1cc(C)cc(Br)c1)[C@H]1CNC[C@@H]1O
b: CO[C@@H]1[C@@H](n2cc(-c3cc(F)c(F)c(F)c3)nn2)[C@@H](O)[C@@H](CO)O[C@H]1C(=O)N(c1cc(Cl)cc(Cl)c1)[C@H]1CNCC[C@@H]1O
Query string: Param pair: a , b . Output: the one whose pIC50 is numerically greater. When you have decided, please share the label of that item.
Result string: b
(b: 7.89, a: 7.60)

* * *

Target: human Gal-3 (hGal-3) (Homo sapiens (Human))
Assay: Competitive binding assay: biotinylated hGal-3 binding to microplate-adsorbed asialofetuin (ASF)
Settings: Activity on hGal-3; mean values of several measurements; mixture of diastereomers measured where not separated
Description: The inhibitory activity of compounds is determined in competitive binding assays. This spectrophotometric assay measures the binding of biotinylated human Gal-3 (hGal-3) or human Gal-1 (hGal-1), respectively, to a microplate-adsorbed glycoprotein, asialofetuin (ASF) (Proc Natl Acad Sci USA. 2013 Mar 26;110(13):5052-7.). […] The calculated IC50 values may fluctuate depending on the daily assay performance. […]
Readout Type: IC50 (nM)

Below, each entry is followed by its recorded IC50 result.
{"columns": ["Given Smiles", "Uom", "Observed"],
 "data": [
  ["CO[C@@H]1[C@@H](n2cc(-c3cc(F)c(F)c(F)c3)nn2)[C@@H](O)[C@@H](CO)O[C@H]1C(=O)N(c1cc(Br)cc(C#N)c1)[C@H]1CN(C=O)C[C@@H]1O", "nM", 38],
  ["CO[C@@H]1[C@@H](n2cc(-c3cc(F)c(F)c(F)c3)nn2)[C@@H](O)[C@@H](CO)O[C@H]1C(=O)N(c1cc(C)cc(Br)c1)[C@H]1CN(C(C)=O)C[C@@H]1O", "nM", 26]
]}

1: CO[C@@H]1[C@@H](n2cc(-c3cc(F)c(F)c(F)c3)nn2)[C@@H](O)[C@@H](CO)O[C@H]1C(=O)N(c1cc(C)cc(Br)c1)[C@@H]1CNCC[C@H]1O
2: CO[C@@H]1[C@@H](n2cc(-c3ccc(Br)c(F)c3F)nn2)[C@@H](O)[C@@H](CO)O[C@H]1C(=O)N(c1cc(Cl)cc(Cl)c1)[C@@H]1CN(C(C)=O)C[C@H]1O
3: CO[C@@H]1[C@@H](n2cc(-c3cc(F)c(C)c(F)c3)nn2)[C@@H](O)[C@@H](CO)O[C@H]1C(=O)N(c1cc(C)cc(Br)c1)[C@@H]1COC[C@H]1O
Query string: Order the records, beginning with the lowest IC50 and ending with the highest. Labels, requested order.
Result string: 2, 3, 1

* * *

molecular target: human Gal-3 (hGal-3) (Homo sapiens (Human), UniProt P17931); test: Competitive binding assay: biotinylated hGal-3 binding to microplate-adsorbed asialofetuin (ASF); details: Activity on hGal-3; mean values of several measurements; mixture of diastereomers measured where not separated
Sequence (P17931 whole entry): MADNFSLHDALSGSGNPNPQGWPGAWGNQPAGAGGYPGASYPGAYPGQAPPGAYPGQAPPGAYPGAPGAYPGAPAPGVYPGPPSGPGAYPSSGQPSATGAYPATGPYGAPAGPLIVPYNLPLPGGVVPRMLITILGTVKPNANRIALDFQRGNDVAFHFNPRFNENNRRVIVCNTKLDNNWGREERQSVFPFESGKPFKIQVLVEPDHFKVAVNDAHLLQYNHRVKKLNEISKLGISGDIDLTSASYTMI
Readout Type: IC50 (nM)

{"columns": ["Given Smiles", "IC50, nM"],
 "data": [
  ["CO[C@@H]1[C@@H](n2cc(-c3cc(F)c(F)c(F)c3)nn2)[C@@H](O)[C@@H](CO)O[C@H]1C(=O)N(c1cc(Cl)cc(Cl)c1)[C@H]1CCOC[C@@H]1O", 16]
]}

a: COc1cc(C#N)cc(N(C(=O)[C@@H]2O[C@H](CO)[C@H](O)[C@H](n3cc(-c4cc(F)c(F)c(F)c4)nn3)[C@H]2OC)[C@H]2COC[C@@H]2O)c1
b: CO[C@@H]1[C@@H](n2cc(-c3ccc(Br)c(F)c3F)nn2)[C@@H](O)[C@@H](CO)O[C@H]1C(=O)N(c1cc(C)cc(Br)c1)[C@H]1COC[C@@H]1O
Query string: Looking only at measured IC50, which entry is lower, a or b ? Give the label under which the chosen entry appears.
Result string: b

a: CO[C@@H]1[C@@H](n2cc(-c3cc(F)c(C)c(F)c3)nn2)[C@@H](O)[C@@H](CO)O[C@H]1C(=O)N(c1cc(Br)cc(Br)c1)[C@H]1COC[C@@H]1O
b: CO[C@@H]1[C@@H](n2cc(-c3ccc(Br)c(F)c3F)nn2)[C@@H](O)[C@@H](CO)O[C@H]1C(=O)N(c1cc(Br)cc(C#N)c1)[C@H]1COC[C@@H]1O
Query string: Higher IC50 between a and b ? Lab note: record the label of whichever item you select.
Result string: a

P: CO[C@@H]1[C@@H](n2cc(-c3cc(F)c(F)c(F)c3)nn2)[C@@H](O)[C@@H](CO)O[C@H]1C(=O)N(c1cccc(I)c1)[C@H]1COC[C@@H]1O
Q: CO[C@@H]1[C@@H](n2cc(-c3ccc(C)c(F)c3F)nn2)[C@@H](O)[C@@H](CO)O[C@H]1C(=O)N(c1cc(C)cc(Br)c1)[C@H]1COC[C@@H]1O
Query string: Which shows the larger IC50 value: P or Q ? Give the label under which the chosen entry appears.
Result string: P

* * *

molecular target: human Gal-3 (hGal-3) (Homo sapiens (Human), UniProt P17931); assay: Competitive binding assay: biotinylated hGal-3 binding to microplate-adsorbed asialofetuin (ASF)
Readout Type: IC50 (nM)
Report as a plain number; the unit nM is understood.

Answered cases to consult:
{"columns": ["Given Smiles", "Target Under Test", "Uom", "IC50"],
 "data": [
  ["CO[C@@H]1[C@@H](n2cc(-c3cc(F)c(Cl)c(F)c3)nn2)[C@@H](O)[C@@H](CO)O[C@H]1C(=O)N(c1cc(Cl)cc(Cl)c1)[C@@H]1CN(C(C)=O)C[C@H]1O", "human Gal-3 (hGal-3) (Homo sapiens (Human), UniProt P17931)", "nM", 64],
  ["CO[C@@H]1[C@@H](n2cc(-c3cc(F)c(C)c(F)c3)nn2)[C@@H](O)[C@@H](CO)O[C@H]1C(=O)N(c1cc(C)cc(Br)c1)[C@H]1CNC[C@@H]1O", "human Gal-3 (hGal-3) (Homo sapiens (Human), UniProt P17931)", "nM", 56],
  ["CO[C@@H]1[C@@H](n2cc(-c3cc(F)c(Cl)c(F)c3)nn2)[C@@H](O)[C@@H](CO)O[C@H]1C(=O)N(c1cc(Br)cc(Br)c1)[C@@H]1CN(C(C)=O)C[C@H]1O", "human Gal-3 (hGal-3) (Homo sapiens (Human), UniProt P17931)", "nM", 36],
  ["CO[C@@H]1[C@@H](n2cc(-c3cc(F)c(C)c(F)c3)nn2)[C@@H](O)[C@@H](CO)O[C@H]1C(=O)N(c1cc(Cl)cc(Cl)c1)[C@@H]1CN(C(C)=O)C[C@H]1O", "human Gal-3 (hGal-3) (Homo sapiens (Human), UniProt P17931)", "nM", 327],
  ["CO[C@@H]1[C@@H](n2cc(-c3ccc(Cl)c(Cl)c3)nn2)[C@@H](O)[C@@H](CO)O[C@H]1C(=O)N(c1cc(Cl)cc(Cl)c1)[C@@H]1CN(C(C)=O)C[C@H]1O", "human Gal-3 (hGal-3) (Homo sapiens (Human), UniProt P17931)", "nM", 71]
]}

IC50 in this record for `CO[C@@H]1[C@@H](n2cc(-c3cc(F)c(F)c(F)c3)nn2)[C@@H](O)[C@@H](CO)O[C@H]1C(=O)N(c1cc(Br)cc(Br)c1)[C@H]1CN(C(C)=O)C[C@@H]1O` : 70
